Origin of the recorded values: PubChem BioAssay

Test: blockers of DNA damage checkpoint Chk1 activation – imaging, HeLa, hydroxyurea, phospho-Chk1 antibody, percent positive cells, primary screen (AID 1186)
Conditions: hydroxyurea-induced phospho-Chk1 immunofluorescence imaging, higher = more signal
Threshold check on z-score: at or above 0.06 gives rule met, strictly below gives rule not met.

Answered cases to consult:
> print(dat)
                                   compound  qualitative.label
1  COc1ccc([Si](C)(C)[C@H]2[C@H](CC(=O)N3Cc4ccccc4C[C@H]3CO)O[C@@]3(C(=O)N(C)c4c(Br)cc(C)cc43)[C@@H]2C)cc1           rule met
2  COCCCN1C(=O)[C@@]2(c3ccc([N+](=O)[O-])cc3)CC(=O)N(CC34CC5CC(CC(C5)C3)C4)[C@@H]2c2ccc(CO)cc21       rule not met
3  C[N+](C)(C)CCCC[C@@H]1NC(=O)[C@@H]2C[C@H](C(=O)NCc3ccc(F)cc3)[C@H](c3ccc(O)cc3)N2C1=O       rule not met
4  Cc1ccc(C(C)CC(O)C2C=CC3C(=O)N(C)C(=O)C3N2Nc2ccccc2)o1 (configuration not stated)           rule met
5  CC(C)=CCCC=C(C)C(O)C1C=CC2C(=O)N(c3ccccc3)C(=O)C2N1Nc1ccc(C#N)cc1 (configuration not stated)       rule not met

Please check the record COCCCNC(=O)[C@@H]1c2ccccc2C(=O)N(Cc2ccc(OC(F)(F)F)cc2)[C@H]1c1ccc(CO)cc1 and state if its z-score is at or above 0.06.
rule not met

Please check the record O=C(NCc1ccccc1)[C@@H]1c2ccccc2C(=O)N(Cc2ccc(OC(F)(F)F)cc2)[C@H]1c1ccc(CO)cc1 and state if its z-score is at or above 0.06.
rule not met
